Test system: ERK1/2 phosphorylation in BV2 cells
Test: p-ERK1/2 Western blot assay in BV2 cells
Format: cell-based, murine
Conditions: Mus musculus, BV-2, 30 minutes pretreatment, CSF1 100 ng/mL 5 minutes
Reported Property: pEC50
One number for each entry, as −log10 of the molar value.

Can you share its pEC50? I mean this compound: `COc1ccc(COc2ncc(Cc3ccnc4cc(OC)cnc34)cc2OC)nc1`
7.67

###

Biological target: CSF-1R (Homo sapiens (Human), UniProt P07333)
Sequence (P07333 20-972): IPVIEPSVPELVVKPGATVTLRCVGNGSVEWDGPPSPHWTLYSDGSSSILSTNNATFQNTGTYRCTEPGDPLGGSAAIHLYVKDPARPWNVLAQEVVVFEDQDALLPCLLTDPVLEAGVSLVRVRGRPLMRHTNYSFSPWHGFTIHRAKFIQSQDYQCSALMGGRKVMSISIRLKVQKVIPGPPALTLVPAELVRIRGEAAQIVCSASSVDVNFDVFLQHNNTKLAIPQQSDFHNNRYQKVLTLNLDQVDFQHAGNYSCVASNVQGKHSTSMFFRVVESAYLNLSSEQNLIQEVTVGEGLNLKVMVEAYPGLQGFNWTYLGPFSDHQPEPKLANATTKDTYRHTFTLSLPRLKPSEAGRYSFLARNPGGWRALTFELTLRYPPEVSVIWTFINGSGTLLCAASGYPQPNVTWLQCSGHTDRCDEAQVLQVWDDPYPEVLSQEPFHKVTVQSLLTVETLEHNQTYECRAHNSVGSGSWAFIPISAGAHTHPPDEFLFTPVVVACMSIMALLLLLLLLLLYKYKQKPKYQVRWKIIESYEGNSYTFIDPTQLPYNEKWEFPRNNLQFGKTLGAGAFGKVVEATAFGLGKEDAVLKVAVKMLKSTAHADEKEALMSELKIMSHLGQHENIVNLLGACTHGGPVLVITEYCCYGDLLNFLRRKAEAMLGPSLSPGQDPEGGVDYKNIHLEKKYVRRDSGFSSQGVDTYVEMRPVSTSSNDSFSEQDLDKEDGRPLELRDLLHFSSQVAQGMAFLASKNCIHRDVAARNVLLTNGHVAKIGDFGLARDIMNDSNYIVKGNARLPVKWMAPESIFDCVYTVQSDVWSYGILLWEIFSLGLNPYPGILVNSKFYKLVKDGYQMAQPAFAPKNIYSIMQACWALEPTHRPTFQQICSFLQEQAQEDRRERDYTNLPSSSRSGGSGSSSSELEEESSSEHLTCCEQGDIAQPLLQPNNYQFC
Test: Biochemical HTRF kinase assay, CSF-1R;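 also: enzyme incubated with inhibitor plus a substrate and ATP mix for one hour at room temperature before HTRF detection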
Settings: Table 2; recombinant human CSF-1R
Exercise: for every item that follows, state its recorded IC50.

For every listed record, write down its IC50.
1. COc1cnc2c(Cc3cnc(OCc4ccc([C@H]5CC5(F)F)cn4)c(OC)c3)ccnc2c1 (stereo in doubt) [Example 81]
2. COc1cnc2c(Cc3cnc(OCc4cc5n(n4)CCCO5)c(OC)c3)ccnc2c1
3. COc1ccc2c(Cc3ccc(OCc4ccc5c(c4)OC(F)(F)O5)c(OC)c3)ccnc2c1

5.1 nM
4.4 nM
203 nM

For every listed record, write down its IC50.
1. [2H]C([2H])([2H])Oc1cnc2c(Cc3cnc(OCc4ccc(OC)cn4)c(OC)c3)ccnc2c1
2. COc1ccc(COc2ncc(Oc3ccnc4cc(OC)cnc34)cc2OC)nc1
3. COc1cnc2c(Cc3ccc4nc(C5CCOCC5)cnc4c3)ccnc2c1

1. 3.6 nM
2. 87.1 nM
3. 543 nM

For every listed record, write down its IC50.
1. COc1cnc2c(Cc3cnc(OCc4cccc(N(C)C(C)=O)n4)c(OC)c3)ccnc2c1
2. COc1cnc2c(Cc3cnc(OCc4ccc([C@H]5CC5(F)F)cn4)c(OC)c3)ccnc2c1 (stereo in doubt) [Example 80]
3. COc1ccc(COc2ncc(Cc3ccnc4cc(C(=O)N(C)C)cnc34)cc2OC)nc1
4. COc1cccc(COc2ccc(Cc3ccnc4cc(OC)ccc34)cc2OC)c1
5. COc1ccc2c(Cc3ccc(OCc4ccccc4OC)c(OC)c3)ccnc2c1

["52.5 nM", "4 nM", "58.8 nM", "25.7 nM", "73.9 nM"]

For every listed record, write down its IC50.
1. COc1cnc2c(Cc3cnc(OCc4ccc(C(F)F)nc4)c(OC)c3)ccnc2c1
2. COc1cnc2c(Cc3ccc4nc(N5CCC(OC)CC5)ncc4c3)ccnc2c1
3. COc1ccc(COc2ncc(Cc3ccnc4cnccc34)cc2OC)nc1
4. COc1cnc2c(Cc3cnc(OCc4cnc5c(c4)CC[C@H]5OC)c(OC)c3)ccnc2c1 (stereo in doubt) [Example 104]
5. COc1ccc(COc2ncc(Cc3ccnc4cc(N5CCN(C)CC5)cnc34)cc2OC)nc1
6. COc1ccc(COc2ncc(Cc3c(F)cnc4cc(OC)cnc34)cc2OC)nc1

1. 5.4 nM
2. > 1000 nM
3. 47.6 nM
4. 2.4 nM
5. 3 nM
6. 208 nM

###

Biological target: CSF-1R (Homo sapiens (Human))
Assay: Biochemical HTRF kinase assay, CSF-1R
Settings: Table 2; recombinant human CSF-1R
Reported Property: IC50 (nM)
Give bare numbers, in nM.

Compound	IC50 / nM
COc1ccc(COc2ncc(Cc3ccnc4cc(N5CCC5)cnc34)cc2OC)nc1 [Example 127]	22.3
COc1cnc2c(Cc3cnc(OCc4ccc(C5CC5)cn4)c(OC)c3)ccnc2c1 [Example 59]	4.4

For every listed record, write down its IC50.
1. COc1cnc2c(Cc3cnc(OCc4cnn(C(C)C)c4)c(OC)c3)ccnc2c1 [Example 43]
2. COc1cnc2c(Cc3cnc(OCc4ccc(C(F)(F)F)nc4)c(OC)c3)ccnc2c1 [Example 45]

[2.8, 2.31]

For every listed record, write down its IC50.
1. COc1ccc2c(Cc3ccc(OCc4cc(C)nn4C)c(OC)c3)ccnc2c1 [Example 23]
2. COc1cnc2c(Cc3cnc(OCc4cc5cnccn5n4)c(OC)c3)ccnc2c1 [Example 145]
3. COc1ccc2c(Cc3ccc(OCc4ccncc4)c(OC)c3)ccnc2c1 [Example 10]

[8, 39.1, 118]

Can you share its IC50? I mean this compound: COc1cnc2c(Cc3cnc(OCc4cc(C(C)(C)OC)n(C)n4)c(OC)c3)ccnc2c1 [Example 113]
12.3

###

Molecular target: PDGFRβ (Homo sapiens (Human))
Sequence (P09619 33-1106): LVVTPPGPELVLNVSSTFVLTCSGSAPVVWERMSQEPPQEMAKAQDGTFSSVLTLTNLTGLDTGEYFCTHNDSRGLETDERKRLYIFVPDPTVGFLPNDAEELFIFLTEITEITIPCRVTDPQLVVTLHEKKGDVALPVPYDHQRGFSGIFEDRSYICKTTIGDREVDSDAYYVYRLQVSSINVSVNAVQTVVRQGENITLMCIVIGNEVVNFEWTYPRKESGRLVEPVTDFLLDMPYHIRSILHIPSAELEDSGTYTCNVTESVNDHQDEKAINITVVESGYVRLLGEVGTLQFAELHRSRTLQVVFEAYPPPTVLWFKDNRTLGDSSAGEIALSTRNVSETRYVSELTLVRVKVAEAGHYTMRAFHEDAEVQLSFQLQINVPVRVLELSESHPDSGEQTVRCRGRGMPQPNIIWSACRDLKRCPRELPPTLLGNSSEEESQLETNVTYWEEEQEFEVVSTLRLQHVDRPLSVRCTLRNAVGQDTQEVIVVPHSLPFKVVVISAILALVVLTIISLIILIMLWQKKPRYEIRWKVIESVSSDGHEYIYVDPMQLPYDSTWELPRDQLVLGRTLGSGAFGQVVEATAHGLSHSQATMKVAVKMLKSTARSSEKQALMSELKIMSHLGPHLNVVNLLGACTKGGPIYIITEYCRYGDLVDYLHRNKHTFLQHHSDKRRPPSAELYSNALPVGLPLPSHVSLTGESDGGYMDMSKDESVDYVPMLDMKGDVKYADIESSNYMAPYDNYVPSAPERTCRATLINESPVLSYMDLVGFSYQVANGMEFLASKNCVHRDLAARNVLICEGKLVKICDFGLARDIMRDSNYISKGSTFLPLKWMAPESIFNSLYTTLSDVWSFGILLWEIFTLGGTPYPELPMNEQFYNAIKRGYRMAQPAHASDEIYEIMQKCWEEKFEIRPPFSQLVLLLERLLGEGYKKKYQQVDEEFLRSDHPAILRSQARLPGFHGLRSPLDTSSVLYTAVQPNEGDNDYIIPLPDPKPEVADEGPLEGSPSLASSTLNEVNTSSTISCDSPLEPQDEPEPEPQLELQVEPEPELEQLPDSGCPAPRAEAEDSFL
Test: Biochemical HTRF kinase assay, PDGFRβ;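 also: kinase reaction with substrate/ATP mix run 1 h at room temperature in 384-well format, HTRF signal detection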
Settings: selectivity: IC50 of PDGFR-1β as multiple of IC50 of CSF-1R
Reported Property: PDGFR-1β Fold

Molecule	Reported Property	Result
[2H]C([2H])([2H])Oc1cnc2c(Cc3cnc(OCc4ccc(OC)cn4)c(OC)c3)ccnc2c1	PDGFR-1β Fold	>100 fold

For every listed record, write down its PDGFR-1β Fold.
1. COc1cnc2c(Cc3cnc(OCc4cc(C)n(C)n4)c(OC)c3)ccnc2c1
2. COc1cnc2c(Cc3cnc(OCc4cc5n(n4)CCC5)c(OC)c3)ccnc2c1

[">100 fold", ">100 fold"]

For every listed record, write down its PDGFR-1β Fold.
1. COc1ccc(COc2ncc(Cc3ccnc4cc(-c5ccn(C)n5)cnc34)cc2OC)nc1
2. COc1ccc(COc2ncc(Cc3ccnc4cc(N(C)C)cnc34)cc2OC)nc1
3. COc1cnc2c(Cc3cnc(OCc4ccc([C@H]5CC5(F)F)cn4)c(OC)c3)ccnc2c1 (stereo in doubt) [Example 80]
4. COc1ccc(COc2ncc(Cc3ccnc4cccnc34)cc2OC)nc1
5. COc1ccc(COc2ncc(Cc3ccnc4cc(N5CCN(C)CC5)cnc34)cc2OC)nc1

1: 59.7 fold; 2: >100 fold; 3: 12.3 fold; 4: >100 fold; 5: >100 fold

For every listed record, write down its PDGFR-1β Fold.
1. COc1cnc2c(Cc3cnc(OCc4cc5n(n4)C[C@@H](OC)C5)c(OC)c3)ccnc2c1
2. COc1cnc2c(Cc3cnc(OCc4cc5n(n4)CC4CC54)c(OC)c3)ccnc2c1 (centres unmarked)
3. COc1cnc2c(Cc3cnc(OCc4cnc5c(c4)OCCN5C)c(OC)c3)ccnc2c1
4. COc1cnc2c(Cc3cnc(OCc4cc5n(n4)C[C@H](F)C5)c(OC)c3)ccnc2c1
5. COc1cnc2c(Cc3cnc(OCc4ccc(C)cn4)c(OC)c3)ccnc2c1
6. COc1ccc(COc2ncc(Cc3ccnc4cc(OC)cnc34)cc2OC)nc1
7. [2H]C([2H])([2H])Oc1ccc(COc2ncc(Cc3ccnc4cc(OC)cnc34)cc2OC)nc1
8. COc1cnc2c(Cc3cnc(OCc4cc(C(C)C)no4)c(OC)c3)ccnc2c1

>50 fold
>100 fold
>100 fold
>100 fold
>100 fold
>100 fold
>100 fold
>100 fold

Form entry - test system: PDGFRβ (Homo sapiens (Human)); read-out: PDGFR-1β Fold; molecule: COc1cnc2c(Cc3cnc(OCc4ccc(C5CC5(F)F)cn4)c(OC)c3)ccnc2c1 (centres unmarked)
24.5 fold

###

Assay: In vivo PK study (plasma and brain exposure)
Parameters: species or system CD1 mouse
Settings: male, serum, po; CD1 mouse, p.o. 45 mg/kg; read-out: PO-45mpk AUCInf
Reported Property: AUC(0-inf) (µg·h/mL)
One number for each entry, in µg·h/mL.

// below: answered compounds
Compound	Uom	AUC(0-inf)
COc1ccc(COc2ncc(Cc3ccnc(-c4cnn(C)c4)n3)cc2OC)nc1 [Comparator A, reference compound]	µg·h/mL	181
COc1ccc(COc2ncc(Cc3ccnc4cc(-c5ccn(C)n5)cnc34)cc2OC)nc1	µg·h/mL	96.5
COc1ccc(COc2ncc(Cc3ccnc4cc(N5CCN(C)CC5)cnc34)cc2OC)nc1	µg·h/mL	5.48
COc1ccc(COc2ncc(Cc3ccnc4cc(OC)cnc34)cc2OC)nc1	µg·h/mL	216
COc1cnc2c(Cc3cnc(OCc4cc5n(n4)CCOC5)c(OC)c3)ccnc2c1	µg·h/mL	202

For every listed record, write down its AUC(0-inf).
1. CNC(=O)c1cc(Oc2ccc3nc(N[C@@H]4CCCC[C@H]4O)sc3c2)ccn1 [BLZ945, reference compound]
2. COc1ncc(F)cc1CNc1ccc(Cc2c[nH]c3ncc(C)cc23)c(F)n1 [PLX5622, reference compound]
3. COc1ccc(COc2ccc(Cc3cnc(N)nc3N)cc2OC)cc1 [GW2580, reference compound]

1: 106; 2: 163; 3: 27.7

###

Test: In vivo PK study (plasma and brain exposure)
Design: species or system CD1 mouse
Details: male, serum, po; CD1 mouse, p.o. 45 mg/kg; read-out: PO-45mpk Tmax
Exercise: for every item that follows, state its recorded Tmax.
Give bare numbers, in min.

// below: answered compounds
Compound	Reported Property	Numeric Value
COc1ccc(COc2ncc(Cc3ccnc4cc(-c5ccn(C)n5)cnc34)cc2OC)nc1	Tmax	30
COc1cnc2c(Cc3cnc(OCc4cc5n(n4)C[C@H](OC)C5)c(OC)c3)ccnc2c1	Tmax	30

For every listed record, write down its Tmax.
1. COc1cnc2c(Cc3cnc(OCc4ccc(C(F)(F)F)nc4)c(OC)c3)ccnc2c1
2. COc1cnc2c(Cc3cnc(OCc4cc5n(n4)CCOC5)c(OC)c3)ccnc2c1
3. COc1ncc(F)cc1CNc1ccc(Cc2c[nH]c3ncc(C)cc23)c(F)n1 [PLX5622, reference compound]
4. COc1ccc(COc2ncc(Cc3ccnc4cc(OC)cnc34)cc2OC)nc1
5. CNC(=O)c1cc(Oc2ccc3nc(N[C@@H]4CCCC[C@H]4O)sc3c2)ccn1 [BLZ945, reference compound]
6. COc1ccc(COc2ncc(Cc3ccnc(-c4cnn(C)c4)n3)cc2OC)nc1 [Comparator A, reference compound]
7. COc1ccc(COc2ncc(Cc3ccnc4cc(N5CCN(C)CC5)cnc34)cc2OC)nc1
8. COc1ccc(COc2ccc(Cc3cnc(N)nc3N)cc2OC)cc1 [GW2580, reference compound]

30
30
60
60
30
60
15
60
